- Target Under Test: SHP2-C SH2;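 further: peptide library displayed on the E. coli surface as eCPX fusions, selected cells deep-sequenced, score is each peptide's frequency after selection divided by its frequency in the input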
- Protocol Text: SH2 binding enrichment of the phosphorylated peptide, bacterial display (enrichment ratio); higher = better substrate or ligand; peptides without Tyr show the background
Metric: SH2 binding enrichment
Lab note: jot the number down without any unit.

Recorded results for 3 sequences are shown here.
Recorded SH2 binding enrichment of EFEGLYQEGGG [TMEM159_Y159] , please.
0.789

Recorded SH2 binding enrichment of FDCGMYSHLQG [LGR4_Y848_YF] , please.
1

Recorded SH2 binding enrichment of YLAAIYPTVGQ [NF1_Y2508_T2507I] , please.
0.986

As a next step, examine the sequence that follows.
Recorded SH2 binding enrichment of KNNDGYIDFAE [MCFD2_Y135_YF] , please.
0.999
